apparent KD of MS2 coat protein values for the sequences below.
Test system: MS2 coat protein
TEST PROTOCOL: apparent KD of MS2 coat protein; designed switch direction (-1 OFF switch, 1 ON switch): -1; higher = weaker reporter binding
SETUP CONDITIONS: input ligand: FMN 200 uM

SEQUENCE RECORD	TEST TARGET	apparent KD of MS2 coat protein [µM]
AACUGGCGAGGAUAUACUUGGCAUAUAGCCUAAUUUCGGCUACUUGAGGAUCACCCAAGUAGAAGGUGCACGGC [Anlaxebe] (Eterna round: R97, puzzle: Exclusion 2)	MS2 coat protein	0.0165
UGACUACAUGAGGAUCACCCAUGUCAGGAUAUGCCGUUAAAUUAACAUCAACAUACGGGUAGAAGGGACAGCGU [1st #5] (Eterna round: R97, puzzle: Exclusion 1)	MS2 coat protein	0.0272
UUCGUGCAGCUUUGCUGUACGCGUACAUGAGGAUCACCCAUGUAGGAUAUGGUACGCUUUGCGUGCUAGAAGGAUAUGUGGAGG [JL EXNG3 1.35] (Eterna round: R96, puzzle: Exclusion NG 3)	MS2 coat protein	0.0591
GACCGUGCUUAGGAUAUACGUUAGGAGUUGACCGUAGAAGGGAGUACAUGAGGAUCACCCAUGUCACCUACAGC [Eternabot (L2) Solution 75] (Eterna round: R97, puzzle: Exclusion 6)	MS2 coat protein	0.0159
CGUCUGUAAGGAUAUGGUAGCGUUUACAUGAGGAUCACCCAUGUUACAUGGGACUAGAGACUAGAAGGUACGAACG [EX5 #51] (Eterna round: R97, puzzle: Exclusion 5)	MS2 coat protein	0.589
